# SYSTEM UNDER TEST: full length recombinant Pim-2 protein (Homo sapiens, UniProt Q9P1W9)
# Construct: by full length recombinant Pim-1, Pim-2, or Pim-3 protein; hexahistidine tag followed by a thrombin cleavage site (N); made in house; host or cells: Sf9 (baculovirus) or E. coli (pET28)
# Sequence (Q9P1W9 whole entry): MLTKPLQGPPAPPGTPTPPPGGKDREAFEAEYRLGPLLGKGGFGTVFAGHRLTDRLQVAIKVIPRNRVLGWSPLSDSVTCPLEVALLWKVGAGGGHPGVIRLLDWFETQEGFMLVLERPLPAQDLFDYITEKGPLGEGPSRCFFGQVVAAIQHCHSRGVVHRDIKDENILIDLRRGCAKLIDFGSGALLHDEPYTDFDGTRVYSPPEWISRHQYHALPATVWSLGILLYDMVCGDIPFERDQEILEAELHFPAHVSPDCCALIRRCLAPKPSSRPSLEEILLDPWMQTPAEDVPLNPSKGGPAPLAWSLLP
# ASSAY PROCEDURE: Pim-2 enzyme assay (HTRF, phosphorylation of biotinylated-BAD (S112) peptide)
# Type: biochemical
# ASSAY CONDITIONS: enzyme assay, Pim-2; read-out: Pim2_IC50
ATTRIBUTE MEASURED: IC50 (nM)
Please state the figure in nM; there is no need to write the unit.

COMPOUND | UNIT ANNOTATION | IC50
CC(C)Oc1cncc(-c2ccc3[nH]nc(-c4cncc(O[C@@H]5CCCNC5)n4)c3c2)c1 [Example 120] | nM | 98
NC1CCN(c2cncc(-c3c[nH]c4ccc(C(=O)O)cc34)n2)CC1 [Example 237] | nM | 325

Problem: Param item = CNc1cncc(-c2n[nH]c3ccc(-c4c(F)cccc4F)cc23)n1 [Example 179] ; retrieve measured IC50.
Solution: 858

Problem: Param item = NC1CCN(c2cncc(-c3n[nH]c4ccc(N5CCCCC5)cc34)n2)CC1 [Example 90] ; retrieve measured IC50.
Solution: 196

* * *

# SYSTEM UNDER TEST: full length recombinant Pim-2 protein (Homo sapiens)
# Construct: by full length recombinant Pim-1, Pim-2, or Pim-3 protein; hexahistidine tag followed by a thrombin cleavage site (N); made in house; host or cells: Sf9 (baculovirus) or E. coli (pET28)
# ASSAY PROCEDURE: Pim-2 enzyme assay (HTRF, phosphorylation of biotinylated-BAD (S112) peptide)
# Assay type: biochemical
# ASSAY CONDITIONS: read-out: Pim2_IC50
Structures can show the parent of a compound that is named as a salt.
ATTRIBUTE MEASURED: pIC50
# pIC50 is unitless: minus log10 of the molar concentration; print number only

Field: example entries. Status: answers known.
MOLECULE | pIC50
CS(=O)(=O)Nc1cc(-c2ccc3[nH]cc(-c4cncc(O[C@@H]5CCCNC5)n4)c3c2)cnc1Cl | 6.83
C1=C(c2ccc3[nH]nc(-c4cncc(O[C@H]5CNCCC56CC6)n4)c3c2)CCOC1 [Example 263, 2,2,2-trifluoroacetate salt] | 8.10

Problem: Param item = c1coc(-c2ccc3[nH]cc(-c4cncc(N[C@@H]5CCCNC5)n4)c3c2)n1 ; retrieve measured pIC50.
Solution: 7.62

Problem: Param item = CC1CCCCN1c1nc(-c2ccc3[nH]cc(-c4cncc(O[C@@H]5CCCNC5)n4)c3c2)cs1 (mixture of isomers) [Example 303] ; retrieve measured pIC50.
Solution: 6.13

Problem: Param item = C=C(C)c1ccc2[nH]nc(-c3cncc(O[C@H]4CNCCC45CC5)n3)c2c1 ; retrieve measured pIC50.
Solution: 7.96

Problem: Param item = C[C@@H]1COCCN1c1ccc2[nH]nc(-c3cncc(O[C@H]4CNCCC45CC5)n3)c2c1 ; retrieve measured pIC50.
Solution: 7.24

Problem: Param item = Nc1cncc(-c2ccc3[nH]nc(-c4cncc(OCCF)n4)c3c2)n1 ; retrieve measured pIC50.
Solution: 7.96

Problem: Param item = CC(=O)Nc1ccc(-c2ccc3[nH]nc(-c4cncc(O[C@H]5CNCCC56CC6)n4)c3c2)c(F)c1 ; retrieve measured pIC50.
Solution: 9.00

Problem: Param item = CC(C)OC(=O)c1ccc2[nH]nc(-c3cncc(N4CCC(N)CC4)n3)c2c1 ; retrieve measured pIC50.
Solution: 8.10

Problem: Param item = CC(C)c1ccc(-c2ccc3[nH]cc(-c4cncc(O[C@@H]5CCCNC5)n4)c3c2)cc1 ; retrieve measured pIC50.
Solution: 7.00

Problem: Param item = N#Cc1ccncc1-c1ccc2[nH]nc(-c3cncc(O[C@H]4CNCCC45CC5)n3)c2c1 ; retrieve measured pIC50.
Solution: 7.92

Problem: Param item = COC(=O)c1ccc2[nH]nc(-c3ccnc(NC4CCNCC4)n3)c2c1 ; retrieve measured pIC50.
Solution: 8.52
